FYI, the data here is from ChEMBL document CHEMBL5291721.

// values below are AC50; system is Histamine H1 receptor (Homo sapiens, UniProt P35367); also: assay procedure not described here
Sequence (P35367 whole entry): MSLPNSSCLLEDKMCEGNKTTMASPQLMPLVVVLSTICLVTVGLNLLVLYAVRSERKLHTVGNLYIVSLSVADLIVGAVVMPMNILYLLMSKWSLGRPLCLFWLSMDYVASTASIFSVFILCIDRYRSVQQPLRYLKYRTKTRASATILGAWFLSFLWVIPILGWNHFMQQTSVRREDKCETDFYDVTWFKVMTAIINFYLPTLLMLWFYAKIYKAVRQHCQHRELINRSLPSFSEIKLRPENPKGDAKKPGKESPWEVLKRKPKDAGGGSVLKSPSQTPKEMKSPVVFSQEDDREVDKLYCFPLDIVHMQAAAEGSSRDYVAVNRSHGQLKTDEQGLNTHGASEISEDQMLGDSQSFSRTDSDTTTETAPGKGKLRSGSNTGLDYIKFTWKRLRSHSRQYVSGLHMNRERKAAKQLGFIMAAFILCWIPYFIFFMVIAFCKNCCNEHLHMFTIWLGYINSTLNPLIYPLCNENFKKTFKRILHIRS

{"columns": ["Molecule", "Target of assay", "AC50"],
 "data": [
  ["CCOC(=O)C1=C[C@]2(CC)CCCN3CCc4c(n1c1ccccc41)[C@@H]32", "Histamine H1 receptor (Homo sapiens, UniProt P35367)", "> 30 µM"],
  ["N[C@@H](CC(=O)N1CCn2c(nnc2C(F)(F)F)C1)Cc1cc(F)c(F)cc1F", "Histamine H1 receptor (Homo sapiens, UniProt P35367)", "> 30 µM"],
  ["Cc1cccc(N2CC(CO)OC2=O)c1 (centres undefined)", "Histamine H1 receptor (Homo sapiens, UniProt P35367)", "> 30 µM"],
  ["Oc1ccc2c(c1)CC[C@H](c1ccccc1)[C@@H]2c1ccc(OCCN2CCCC2)cc1", "Histamine H1 receptor (Homo sapiens, UniProt P35367)", "20 µM"],
  ["[H]/N=C(/N)N/C(=N/[H])NCCc1ccccc1", "Histamine H1 receptor (Homo sapiens, UniProt P35367)", "> 30 µM"],
  ["CCN1CCN(Cc2ccc(Nc3ncc(F)c(-c4cc(F)c5nc(C)n(C(C)C)c5c4)n3)nc2)CC1", "Histamine H1 receptor (Homo sapiens, UniProt P35367)", "23 µM"],
  ["CCCCCCCCCCCCCCCCCCCCCC(=O)Nc1ccn([C@@H]2O[C@H](CO)[C@@H](O)[C@@H]2O)c(=O)n1", "Histamine H1 receptor (Homo sapiens, UniProt P35367)", "> 30 µM"],
  ["CCC1(c2ccccc2)CCC(=O)NC1=O (centres undefined) [GLUTETHIMIDE]", "Histamine H1 receptor (Homo sapiens, UniProt P35367)", "> 10 µM"],
  ["CCCN(CCC)C(=O)Cc1c(-c2ccc(Cl)cc2)nc2ccc(Cl)cn12", "Histamine H1 receptor (Homo sapiens, UniProt P35367)", "> 30 µM"],
  ["COc1ccccc1Oc1c(NS(=O)(=O)c2ccc(C(C)(C)C)cc2)nc(-c2ncccn2)nc1OCCO", "Histamine H1 receptor (Homo sapiens, UniProt P35367)", "> 10 µM"],
  ["CCCN[C@H]1CCc2nc(N)sc2C1 [PRAMIPEXOLE]", "Histamine H1 receptor (Homo sapiens, UniProt P35367)", "> 10 µM"],
  ["CCC(=O)O[C@H]1CC[C@H]2[C@@H]3CCC4=CC(=O)CC[C@]4(C)[C@H]3CC[C@]12C [TESTOSTERONE PROPIONATE]", "Histamine H1 receptor (Homo sapiens, UniProt P35367)", "> 10 µM"],
  ["CC12CC3CC(C)(C1)CC(N)(C3)C2 [MEMANTINE]", "Histamine H1 receptor (Homo sapiens, UniProt P35367)", "> 10 µM"],
  ["C=C[C@H]1C[N@@]2CC[C@H]1C[C@@H]2[C@@H](O)c1ccnc2ccc(OC)cc12", "Histamine H1 receptor (Homo sapiens, UniProt P35367)", "> 10 µM"]
]}

---

Each entry below carries its measured AC50, system: D(4) dopamine receptor (Homo sapiens, UniProt P21917). Also: assay procedure not described here.
Sequence (P21917 whole entry): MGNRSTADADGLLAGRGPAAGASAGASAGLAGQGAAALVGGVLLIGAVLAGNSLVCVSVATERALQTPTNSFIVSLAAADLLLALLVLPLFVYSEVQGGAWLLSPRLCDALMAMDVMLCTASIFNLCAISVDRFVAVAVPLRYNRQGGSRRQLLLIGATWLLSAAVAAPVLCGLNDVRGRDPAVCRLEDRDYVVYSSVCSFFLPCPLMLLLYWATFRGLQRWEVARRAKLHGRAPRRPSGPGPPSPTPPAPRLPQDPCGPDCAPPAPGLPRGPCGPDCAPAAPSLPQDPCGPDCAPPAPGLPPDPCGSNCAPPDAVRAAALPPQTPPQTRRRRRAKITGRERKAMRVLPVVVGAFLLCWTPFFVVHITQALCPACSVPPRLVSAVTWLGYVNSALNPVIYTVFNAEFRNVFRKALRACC

{"columns": ["Compound", "Target of assay", "AC50"],
 "data": [
  ["CCN(CC)CCNC(=O)c1c(C)[nH]c(/C=C2\\C(=O)Nc3ccc(F)cc32)c1C [SUNITINIB]", "D(4) dopamine receptor (Homo sapiens, UniProt P21917)", "0.108 µM"],
  ["OC1(c2ccc(Cl)cc2)c2ccccc2C2=NCCN21 (stereo unspecified) [MAZINDOL]", "D(4) dopamine receptor (Homo sapiens, UniProt P21917)", "> 10 µM"],
  ["CC(C)Cc1ccc(C(C)C(=O)O)cc1 (stereo unspecified) [IBUPROFEN]", "D(4) dopamine receptor (Homo sapiens, UniProt P21917)", "> 10 µM"],
  ["C[C@H]1c2cccc(O)c2C(=O)C2=C(O)[C@]3(O)C(=O)C(C(N)=O)=C(O)[C@@H](N(C)C)[C@@H]3[C@@H](O)[C@@H]21 [DOXYCYCLINE]", "D(4) dopamine receptor (Homo sapiens, UniProt P21917)", "> 10 µM"],
  ["CC(CCc1ccc(O)cc1)NCCc1ccc(O)c(O)c1 (stereo unspecified) [DOBUTAMINE]", "D(4) dopamine receptor (Homo sapiens, UniProt P21917)", "2.42 µM"],
  ["Cc1cnc(C(=O)NCCc2ccc(S(=O)(=O)NC(=O)NC3CCCCC3)cc2)cn1 [GLIPIZIDE]", "D(4) dopamine receptor (Homo sapiens, UniProt P21917)", "> 10 µM"],
  ["N[C@@H](CC(=O)N1CCn2c(nnc2C(F)(F)F)C1)Cc1cc(F)c(F)cc1F [SITAGLIPTIN]", "D(4) dopamine receptor (Homo sapiens, UniProt P21917)", "> 10 µM"],
  ["CCC(=O)O[C@]1(C(=O)SCF)[C@H](C)C[C@H]2[C@@H]3C[C@H](F)C4=CC(=O)C=C[C@]4(C)[C@@]3(F)[C@@H](O)C[C@@]21C [FLUTICASONE PROPIONATE]", "D(4) dopamine receptor (Homo sapiens, UniProt P21917)", "> 10 µM"],
  ["CCCC(CCC)C(=O)O [VALPROIC ACID]", "D(4) dopamine receptor (Homo sapiens, UniProt P21917)", "> 10 µM"],
  ["CCCN(CCC)C(=O)Cc1c(-c2ccc(Cl)cc2)nc2ccc(Cl)cn12 [ALPIDEM]", "D(4) dopamine receptor (Homo sapiens, UniProt P21917)", "> 10 µM"],
  ["Cc1onc(-c2ccccc2)c1-c1ccc(S(N)(=O)=O)cc1 [VALDECOXIB]", "D(4) dopamine receptor (Homo sapiens, UniProt P21917)", "> 10 µM"]
]}

---

Each record here notes measured AC50.
biological target: Prostaglandin G/H synthase 1 (Homo sapiens, UniProt P23219); type: functional; also: assay procedure not described here
Sequence (P23219 whole entry): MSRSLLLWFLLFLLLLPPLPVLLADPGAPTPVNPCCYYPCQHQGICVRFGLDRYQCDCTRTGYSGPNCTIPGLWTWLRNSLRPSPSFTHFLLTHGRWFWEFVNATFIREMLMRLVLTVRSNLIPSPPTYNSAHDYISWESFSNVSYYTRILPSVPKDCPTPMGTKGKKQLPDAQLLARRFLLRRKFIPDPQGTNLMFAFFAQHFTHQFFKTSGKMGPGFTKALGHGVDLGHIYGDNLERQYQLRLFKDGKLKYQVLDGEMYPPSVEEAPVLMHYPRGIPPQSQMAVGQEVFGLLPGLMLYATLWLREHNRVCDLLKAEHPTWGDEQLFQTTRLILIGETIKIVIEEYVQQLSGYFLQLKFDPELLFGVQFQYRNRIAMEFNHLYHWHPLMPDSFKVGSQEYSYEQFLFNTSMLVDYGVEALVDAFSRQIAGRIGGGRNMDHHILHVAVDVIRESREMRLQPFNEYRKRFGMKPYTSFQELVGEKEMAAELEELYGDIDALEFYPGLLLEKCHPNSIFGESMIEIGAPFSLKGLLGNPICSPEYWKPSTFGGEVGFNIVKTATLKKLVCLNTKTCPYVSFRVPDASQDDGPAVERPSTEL
Property label: AC50

{"columns": ["Compound", "Target of assay", "Property label", "Reported"],
 "data": [
  ["COc1cc(N2CCC(N3CCN(C)CC3)CC2)ccc1Nc1ncc(Cl)c(Nc2ccccc2P(C)(C)=O)n1", "Prostaglandin G/H synthase 1 (Homo sapiens, UniProt P23219)", "AC50", "26.3 µM"],
  ["CCc1nc(C(N)=O)c(Nc2ccc(N3CCC(N4CCN(C)CC4)CC3)c(OC)c2)nc1NC1CCOCC1", "Prostaglandin G/H synthase 1 (Homo sapiens, UniProt P23219)", "AC50", "> 30 µM"],
  ["CN1CCCCC1CCN1c2ccccc2Sc2ccc([S+](C)[O-])cc21 (configuration not stated)", "Prostaglandin G/H synthase 1 (Homo sapiens, UniProt P23219)", "AC50", "> 30 µM"],
  ["C[C@H]1O[C@@H](n2cc(F)c(=O)[nH]c2=O)[C@H](O)[C@@H]1O", "Prostaglandin G/H synthase 1 (Homo sapiens, UniProt P23219)", "AC50", "> 30 µM"],
  ["CC(C)(O)CNc1nc(Nc2ccnc(C(F)(F)F)c2)nc(-c2cccc(C(F)(F)F)n2)n1", "Prostaglandin G/H synthase 1 (Homo sapiens, UniProt P23219)", "AC50", "14.1 µM"],
  ["Cc1ncc(COP(=O)(O)O)c(C=O)c1O [PYRIDOXAL PHOSPHATE ANHYDROUS]", "Prostaglandin G/H synthase 1 (Homo sapiens, UniProt P23219)", "AC50", "6.68 µM"],
  ["CN1CCC(=C2c3ccccc3Sc3ccccc32)CC1", "Prostaglandin G/H synthase 1 (Homo sapiens, UniProt P23219)", "AC50", "> 30 µM"],
  ["COC(=O)c1ccc(O)cc1", "Prostaglandin G/H synthase 1 (Homo sapiens, UniProt P23219)", "AC50", "> 1 µM"],
  ["CN1CCN(C2=Nc3ccccc3Oc3ccc(Cl)cc32)CC1", "Prostaglandin G/H synthase 1 (Homo sapiens, UniProt P23219)", "AC50", "> 30 µM"],
  ["CCC(=O)O[C@]1(C(=O)CCl)[C@@H](C)C[C@H]2[C@@H]3C[C@H](F)C4=CC(=O)C=C[C@]4(C)[C@@]3(F)[C@@H](O)C[C@@]21C [HALOBETASOL PROPIONATE]", "Prostaglandin G/H synthase 1 (Homo sapiens, UniProt P23219)", "AC50", "> 30 µM"],
  ["C=CCN1CC[C@]23CCCC[C@H]2[C@H]1Cc1ccc(O)cc13", "Prostaglandin G/H synthase 1 (Homo sapiens, UniProt P23219)", "AC50", "> 30 µM"],
  ["CN(CC1(C)CCCO1)S(=O)(=O)c1ccc(Cl)c(S(N)(=O)=O)c1 (configuration not stated) [MEFRUSIDE]", "Prostaglandin G/H synthase 1 (Homo sapiens, UniProt P23219)", "AC50", "> 30 µM"],
  ["Cc1ccccc1N1CCN(CCc2nnc3n2CCCC3)CC1", "Prostaglandin G/H synthase 1 (Homo sapiens, UniProt P23219)", "AC50", "> 30 µM"],
  ["Nc1ccc(C(=O)Oc2ccccc2)c(O)c1 [PHENYL AMINOSALICYLATE]", "Prostaglandin G/H synthase 1 (Homo sapiens, UniProt P23219)", "AC50", "> 30 µM"],
  ["CC[C@@]1(O)C(=O)OCc2c1cc1n(c2=O)Cc2cc3c([N+](=O)[O-])cccc3nc2-1", "Prostaglandin G/H synthase 1 (Homo sapiens, UniProt P23219)", "AC50", "26.8 µM"],
  ["Cc1ccccc1C(=O)Nc1ccc(C(=O)N2CCCC(N(C)C)c3ccccc32)cc1 (configuration not stated)", "Prostaglandin G/H synthase 1 (Homo sapiens, UniProt P23219)", "AC50", "> 30 µM"],
  ["CCCC(CCC)C(=O)O", "Prostaglandin G/H synthase 1 (Homo sapiens, UniProt P23219)", "AC50", "> 30 µM"],
  ["Cc1c(N(C)CS(=O)(=O)O)c(=O)n(-c2ccccc2)n1C", "Prostaglandin G/H synthase 1 (Homo sapiens, UniProt P23219)", "AC50", "3.66 µM"],
  ["CC[C@H]1OC(=O)[C@H](C)C(=O)[C@H](C)[C@@H](O[C@@H]2O[C@H](C)C[C@H](N(C)C)[C@H]2O)[C@](C)(OC)C[C@@H](C)C(=O)[C@H](C)[C@H]2N(CCCCn3cnc(-c4cccnc4)c3)C(=O)O[C@]12C", "Prostaglandin G/H synthase 1 (Homo sapiens, UniProt P23219)", "AC50", "> 30 µM"],
  ["NCC(CC(=O)O)c1ccccc1 (configuration not stated)", "Prostaglandin G/H synthase 1 (Homo sapiens, UniProt P23219)", "AC50", "> 30 µM"],
  ["OC[C@H]1O[C@@H](c2ccc(Cl)c(Cc3ccc(O[C@H]4CCOC4)cc3)c2)[C@H](O)[C@@H](O)[C@@H]1O", "Prostaglandin G/H synthase 1 (Homo sapiens, UniProt P23219)", "AC50", "> 30 µM"],
  ["COc1cc2nccc(Oc3ccc(NC(=O)C4(C(=O)Nc5ccc(F)cc5)CC4)cc3)c2cc1OC [CABOZANTINIB]", "Prostaglandin G/H synthase 1 (Homo sapiens, UniProt P23219)", "AC50", "> 30 µM"],
  ["C[N+](C)(C)C[C@H](O)CC(=O)[O-]", "Prostaglandin G/H synthase 1 (Homo sapiens, UniProt P23219)", "AC50", "> 30 µM"],
  ["Cc1cc(N)c2ccccc2[n+]1CCCCCCCCCC[n+]1c(C)cc(N)c2ccccc21", "Prostaglandin G/H synthase 1 (Homo sapiens, UniProt P23219)", "AC50", "1.57 µM"],
  ["CCN(CC)C(=S)S", "Prostaglandin G/H synthase 1 (Homo sapiens, UniProt P23219)", "AC50", "10.3 µM"],
  ["Cc1cc(NC(=O)C2=C(O)c3ccccc3S(=O)(=O)N2C)no1", "Prostaglandin G/H synthase 1 (Homo sapiens, UniProt P23219)", "AC50", "> 30 µM"],
  ["O=C(O)COc1ccc(C(=O)c2cccs2)c(Cl)c1Cl", "Prostaglandin G/H synthase 1 (Homo sapiens, UniProt P23219)", "AC50", "> 30 µM"]
]}
